Assay Remarks: Solubility in artificial intestinal fluid (FaSSIF)
Assay type: physicochemical
Particulars: thermodynamic from solid, 2 hours
Value Kind: solubility at 2 h (µg/mL)
Use µg/mL as the unit, but write only the number.

[in] Which solubility at 2 h is listed for OC[C@H]1O[C@@H](c2cc(Cc3ccc(C4CC4)cc3)c(Cl)c3c2CCO3)[C@H](O)[C@@H](O)[C@@H]1O [Crystalline form A of enavogliflozin, enavogliflozin] ?
[out] 1000

====

Assay Remarks: Solubility in artificial intestinal fluid (FaSSIF)
Assay type: physicochemical
Particulars: thermodynamic from solid, 4 hours
Value Kind: solubility at 4 h
Note: state the figure and append the unit.

[in] Which solubility at 4 h is listed for OC[C@H]1O[C@@H](c2cc(Cc3ccc(C4CC4)cc3)c(Cl)c3c2CCO3)[C@H](O)[C@@H](O)[C@@H]1O [Crystalline form A of enavogliflozin, enavogliflozin] ?
[out] 920 µg/mL

====

Assay Remarks: Solubility in artificial intestinal fluid (FaSSIF)
Format: physicochemical
Particulars: thermodynamic from solid, 1 hour
Value Kind: solubility at 1 h (µg/mL)
Use µg/mL as the unit, but write only the number.

[in] Which solubility at 1 h is listed for OC[C@H]1O[C@@H](c2cc(Cc3ccc(C4CC4)cc3)c(Cl)c3c2CCO3)[C@H](O)[C@@H](O)[C@@H]1O [Crystalline form A of enavogliflozin, enavogliflozin] ?
[out] 940

====

Assay Remarks: Solubility in artificial intestinal fluid (FaSSIF)
Format: physicochemical
Particulars: thermodynamic from solid, 30 minutes
Value Kind: solubility at 30 min (µg/mL)
Use µg/mL as the unit, but write only the number.

[in] Which solubility at 30 min is listed for OC[C@H]1O[C@@H](c2cc(Cc3ccc(C4CC4)cc3)c(Cl)c3c2CCO3)[C@H](O)[C@@H](O)[C@@H]1O [Crystalline form A of enavogliflozin, enavogliflozin] ?
[out] 690

====

Assay Remarks: Solubility in artificial intestinal fluid (FaSSIF)
Assay type: physicochemical
Particulars: thermodynamic from solid, Initial
Value Kind: solubility at 0 h

[in] Which solubility at 0 h is listed for OC[C@H]1O[C@@H](c2cc(Cc3ccc(C4CC4)cc3)c(Cl)c3c2CCO3)[C@H](O)[C@@H](O)[C@@H]1O [Crystalline form A of enavogliflozin, enavogliflozin] ?
[out] 10000 µg/mL

====

Assay Remarks: Pharmacokinetic evaluation in beagle dogs
Assay type: in vivo
Particulars: male, beagle, dog, plasma, po, 1 mg/kg, read-out: Cmax
Value Kind: Cmax (ng/mL)
Use ng/mL as the unit, but write only the number.

[in] Which Cmax is listed for OC[C@H]1O[C@@H](c2cc(Cc3ccc(C4CC4)cc3)c(Cl)c3c2CCO3)[C@H](O)[C@@H](O)[C@@H]1O [Crystalline form A of enavogliflozin, enavogliflozin] ?
[out] 482

====

Assay Remarks: Pharmacokinetic evaluation in beagle dogs
Assay type: in vivo
Particulars: male, beagle, dog, plasma, po, 1 mg/kg
Value Kind: AUC(0-t) (ng·h/mL)
Use ng·h/mL as the unit, but write only the number.

[in] Which AUC(0-t) is listed for OC[C@H]1O[C@@H](c2cc(Cc3ccc(C4CC4)cc3)c(Cl)c3c2CCO3)[C@H](O)[C@@H](O)[C@@H]1O [Crystalline form A of enavogliflozin, enavogliflozin] ?
[out] 4340

====

Assay Remarks: Solubility in artificial gastric fluid (FaSSGF)
Format: physicochemical
Particulars: fassgf or other biorelevant, thermodynamic from solid, 4 hours
Value Kind: solubility at 4 h (µg/mL)
Use µg/mL as the unit, but write only the number.

[in] Which solubility at 4 h is listed for OC[C@H]1O[C@@H](c2cc(Cc3ccc(C4CC4)cc3)c(Cl)c3c2CCO3)[C@H](O)[C@@H](O)[C@@H]1O [Crystalline form A of enavogliflozin, enavogliflozin] ?
[out] 350

====

Assay Remarks: Solubility in artificial gastric fluid (FaSSGF)
Assay type: physicochemical
Particulars: fassgf or other biorelevant, thermodynamic from solid, 1 hour
Value Kind: solubility at 1 h (µg/mL)
Use µg/mL as the unit, but write only the number.

[in] Which solubility at 1 h is listed for OC[C@H]1O[C@@H](c2cc(Cc3ccc(C4CC4)cc3)c(Cl)c3c2CCO3)[C@H](O)[C@@H](O)[C@@H]1O [Crystalline form A of enavogliflozin, enavogliflozin] ?
[out] 340

====

Assay Remarks: Solubility in artificial gastric fluid (FaSSGF)
Format: physicochemical
Particulars: fassgf or other biorelevant, thermodynamic from solid, 30 minutes
Value Kind: solubility at 30 min

[in] Which solubility at 30 min is listed for OC[C@H]1O[C@@H](c2cc(Cc3ccc(C4CC4)cc3)c(Cl)c3c2CCO3)[C@H](O)[C@@H](O)[C@@H]1O [Crystalline form A of enavogliflozin, enavogliflozin] ?
[out] 310 µg/mL

====

Assay Remarks: Pharmacokinetic evaluation in beagle dogs
Format: in vivo
Particulars: male, beagle, dog, plasma, po, 1 mg/kg, read-out: Tmax
Value Kind: Tmax
Note: state the figure and append the unit.

[in] Which Tmax is listed for OC[C@H]1O[C@@H](c2cc(Cc3ccc(C4CC4)cc3)c(Cl)c3c2CCO3)[C@H](O)[C@@H](O)[C@@H]1O [Crystalline form A of enavogliflozin, enavogliflozin] ?
[out] 4 h
